biological target: Human α7 nAChR (UniProt P36544); test: Radioligand binding ([3H]MLA) at α7 nAChR; details: competition with 5 nM [3H]MLA; Ki by Cheng-Prusoff; read-out: Human α7 Ki
Parameter: Ki. Scope: all listed entries.

Take a look at these entries with their results.
COMPOUND	Ki
c1cncc(N2CC3CC(C2)CN(C2CCNCC2)C3)c1	0.79 µM
c1cncc(N2CC3CC(C2)CN(C2CNC2)C3)c1	0.55 µM
c1cncc(N2CC3CC(C2)CN(C2CN4CCC2CC4)C3)c1 (stereo not shown)	0.51 µM

Consider the record given below.
Req: Recorded Ki of CN1CCC(N2CC3CC(CN(c4cccnc4)C3)C2)C1 (stereo not shown) , please.
Resp: 0.79 µM
